The measurements presented in this section are drawn from PubChem BioAssay (EPA / NIEHS).

- Read-out: Pro-epidermal growth factor (Homo sapiens)
- run-description: LTEA_HepaRG_EGF: Life Technologies and Expression Analysis (LTEA) Assay for Epidermal growth factor (EGF) using HepaRG (AID 2283489)
- details: mRNA level, 48 h; actives raise or lower the signal
Activity calls are given as the source filed them. The calls were made as follows: active = hit-call score of the fitted dose curve at least 0.9, where 1 is the maximum; inactive = score below 0.9.
A correct response names exactly one class from active, inactive

Challenge: # fetch the recorded call for COP(=O)(OC)OC(Br)C(Cl)(Cl)Br (stereo not drawn) here
Response given: inactive

Challenge: # fetch the recorded call for CC[C@H](C)[C@H]1O[C@]2(C=C[C@@H]1C)C[C@@H]1C[C@@H](C/C=C(\C)[C@@H](O[C@H]3C[C@H](OC)[C@@H](O[C@H]4C[C@H](OC)[C@@H](NC)[C@H](C)O4)[C@H](C)O3)[C@@H](C)/C=C/C=C3\CO[C@@H]4[C@H](O)C(C)=C[C@@H](C(=O)O1)[C@]34O)O2 here
Response given: active

Challenge: # fetch the recorded call for Cc1ccn2nc(S(=O)(=O)Nc3c(F)cccc3F)nc2n1 here
Response given: inactive

Challenge: # fetch the recorded call for COP(=O)(NC(C)=O)SC (stereo not drawn) here
Response given: inactive

Challenge: # fetch the recorded call for CNC(=O)ON=C(C)SC here
Response given: inactive

Challenge: # fetch the recorded call for Cc1nn(-c2cc(NS(C)(=O)=O)c(Cl)cc2Cl)c(=O)n1C(F)F here
Response given: inactive

Challenge: # fetch the recorded call for CN(C)C(=O)Nc1cccc(C(F)(F)F)c1 here
Response given: inactive

Challenge: # fetch the recorded call for CN(C)[C@@H]1C(=O)C(C(N)=O)=C(O)[C@@]2(O)C(=O)C3=C(O)c4c(O)cccc4[C@@](C)(O)[C@H]3[C@H](O)[C@@H]12 here
Response given: inactive

Challenge: # fetch the recorded call for CCOP(=O)(SC(C)CC)N1CCSC1=O (stereo not drawn) here
Response given: inactive

Challenge: # fetch the recorded call for COc1cccc(C(=O)NN(C(=O)c2cc(C)cc(C)c2)C(C)(C)C)c1C here
Response given: inactive

Challenge: # fetch the recorded call for N#CSCSC#N here
Response given: inactive

Challenge: # fetch the recorded call for CC(C)=CC1C(C(=O)OCN2C(=O)C3=C(CCCC3)C2=O)C1(C)C (stereo not drawn) here
Response given: inactive

Challenge: # fetch the recorded call for S=C1NCCN1 here
Response given: inactive

Challenge: # fetch the recorded call for CCOP(=S)(OCC)Oc1cc(C)nc(C(C)C)n1 here
Response given: inactive

Challenge: # fetch the recorded call for C#CC(C)(C)NC(=O)c1cc(Cl)cc(Cl)c1 here
Response given: inactive

Challenge: # fetch the recorded call for CCOP(=S)(OCC)Oc1ccc2c(C)c(Cl)c(=O)oc2c1 here
Response given: inactive

Challenge: # fetch the recorded call for O=c1ccc(=O)[nH][nH]1 here
Response given: inactive

Challenge: # fetch the recorded call for CON=C(C(=O)OC)c1ccccc1CON=C(C)c1cccc(C(F)(F)F)c1 here
Response given: inactive

Challenge: # fetch the recorded call for COP(=O)(OC)SCn1c(=O)oc2cc(Cl)cnc21 here
Response given: inactive

Challenge: # fetch the recorded call for C=C(C)[C@H]1Cc2c(ccc3c2O[C@@H]2COc4cc(OC)c(OC)cc4[C@@H]2C3=O)O1 here
Response given: active

Challenge: # fetch the recorded call for CC(=NC#N)N(C)Cc1ccc(Cl)nc1 here
Response given: inactive

Challenge: # fetch the recorded call for C#CCC1=C(C)C(OC(=O)C2C(C=C(C)C)C2(C)C)CC1=O (stereo not drawn) here
Response given: active

Challenge: # fetch the recorded call for CCNc1nc(Cl)nc(NC(C)(C)C#N)n1 here
Response given: inactive

---

- run-description: CCTE_Harrill_HTTr_CellCount_MCF7: CCTE's Cell Proliferation Assessment for the High-Throughput Transcriptomics (HTTr) Platform, Harrill Lab (AID 2284012);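 also: count of Hoechst-stained nuclei per well by high-content imaging in MCF-7 cells; cells exposed to compound for six hours; intended direction is loss of nuclei count meaning fewer cells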
Results filed as inconclusive are left out. Active and inactive are the calls of the source. How the source made its calls: active means hit-call score of the fitted dose curve at least 0.9, where 1 is the maximum; inconclusive means response in the unintended direction; inactive means score below 0.9.
measured-parameter: AC50

Below, 5 compounds whose answers are already recorded.
FC(F)C(F)(F)OCC(Cn1cncn1)c1ccc(Cl)cc1Cl (configuration not stated) | inactive
C[Si](Cn1cncn1)(c1ccc(F)cc1)c1ccc(F)cc1 | inactive
CC(=NC#N)N(C)Cc1ccc(Cl)nc1 | inactive
CCOP(=S)(OCC)Oc1cc(C)nc(C(C)C)n1 | inactive
CCCOCC(=Nc1ccc(Cl)cc1C(F)(F)F)n1ccnc1 | inactive

Challenge: AC50 for O=c1ccc(=O)[nH][nH]1 ?
Response given: inactive

Challenge: AC50 for CN(C)[C@@H]1C(=O)C(C(N)=O)=C(O)[C@@]2(O)C(=O)C3=C(O)c4c(O)cccc4[C@@](C)(O)[C@H]3[C@H](O)[C@@H]12 ?
Response given: inactive

Challenge: AC50 for Nc1c(Cl)cc([N+](=O)[O-])cc1Cl ?
Response given: inactive

Challenge: AC50 for CCCSP(=O)(OCC)Oc1ccc(Br)cc1Cl (configuration not stated) ?
Response given: inactive

Challenge: AC50 for CCOP(=O)(OCC)Oc1cc(C)nc(C(C)C)n1 ?
Response given: inactive

Challenge: AC50 for CC(C)=CC1C(C(=O)OCN2C(=O)C3=C(CCCC3)C2=O)C1(C)C (configuration not stated) ?
Response given: inactive

Challenge: AC50 for N#CSCSC#N ?
Response given: 92.6 µM (active)

---

- Read-out: Urokinase-type plasminogen activator receptor (uPAR), PLAUR (gene 5329)
- run-description: BSK_BE3C_uPAR: BioMAP Diversity Plus: BE3C Assay for Urokinase-type plasminogen activator receptor (uPAR) Biomarker Activity (AID 2283039)
- details: primary human bronchial epithelial cells; actives raise or lower the signal
Calls of active or inactive are those of the source. How the source made its calls: active means hit-call score of the fitted dose curve at least 0.9, where 1 is the maximum; inactive means score below 0.9.
A correct response names exactly one class from yes (1) for active, no (0) for inactive

Challenge: # fetch the recorded call for CON=C(C(=O)OC)c1ccccc1CON=C(C)c1cccc(C(F)(F)F)c1 here
Response given: yes (1)

Challenge: # fetch the recorded call for CC(C)N(C(=O)SCC(Cl)=C(Cl)Cl)C(C)C here
Response given: no (0)

Challenge: # fetch the recorded call for C[N+]1(C)CCCCC1 here
Response given: no (0)

Challenge: # fetch the recorded call for C#CCC1=C(C)C(OC(=O)C2C(C=C(C)C)C2(C)C)CC1=O (stereo unspecified) here
Response given: no (0)

Challenge: # fetch the recorded call for CCC(=NOC/C=C/Cl)C1=C(O)CC(C2CCOCC2)CC1=O (stereo unspecified) here
Response given: no (0)

Challenge: # fetch the recorded call for CCOP(=S)(OCC)Oc1ccc([N+](=O)[O-])cc1 here
Response given: no (0)

---

- Read-out: Human Leukocyte Antigen - DR isotype (HLADR), HLA-DRA (gene 3122)
- run-description: BSK_CASM3C_HLADR: BioMAP Diversity Plus: CASM3C Assay for Human Leukocyte Antigen - DR isotype (HLADR) Biomarker Activity (AID 2283043);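 also: cell-surface HLA-DR protein level quantified by ELISA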
- details: primary human coronary artery smooth muscle cells; actives raise or lower the signal
Active and inactive are the calls of the source. How the source made its calls: active means hit-call score of the fitted dose curve at least 0.9, where 1 is the maximum; inactive means score below 0.9.
A correct response names exactly one class from 1 for active, 0 for inactive

Challenge: # fetch the recorded call for CC1(C(=O)Nc2ccc(O)c(Cl)c2Cl)CCCCC1 here
Response given: 0

Challenge: # fetch the recorded call for CC(C1CC1)C(O)(Cn1cncn1)c1ccc(Cl)cc1 (stereo not given) here
Response given: 0

Challenge: # fetch the recorded call for COc1ccc(C(=CC(=O)N2CCOCC2)c2ccc(Cl)cc2)cc1OC here
Response given: 0

Challenge: # fetch the recorded call for CC(=NC#N)N(C)Cc1ccc(Cl)nc1 here
Response given: 0

Challenge: # fetch the recorded call for COP(=O)(OC)OC(Br)C(Cl)(Cl)Br (stereo not given) here
Response given: 0

Challenge: # fetch the recorded call for CCCSP(=O)(OCC)SCCC here
Response given: 0

Challenge: # fetch the recorded call for Cc1ccn2nc(S(=O)(=O)Nc3c(F)cccc3F)nc2n1 here
Response given: 0

Challenge: # fetch the recorded call for FC(F)C(F)(F)OCC(Cn1cncn1)c1ccc(Cl)cc1Cl (stereo not given) here
Response given: 0

Challenge: # fetch the recorded call for CN(C)NC(=O)CCC(=O)O here
Response given: 0

Challenge: # fetch the recorded call for C[Si](Cn1cncn1)(c1ccc(F)cc1)c1ccc(F)cc1 here
Response given: 0

Challenge: # fetch the recorded call for CCCCOC(=O)[C@@H](C)Oc1ccc(Oc2ccc(C#N)cc2F)cc1 here
Response given: 0

Challenge: # fetch the recorded call for CCCOc1nn(C(=O)NS(=O)(=O)c2ccccc2C(=O)OC)c(=O)n1C here
Response given: 0

Challenge: # fetch the recorded call for CN1COCN(Cc2cnc(Cl)s2)C1=N[N+](=O)[O-] here
Response given: 0

Challenge: # fetch the recorded call for CC(C)=CC1C(C(=O)OCN2C(=O)C3=C(CCCC3)C2=O)C1(C)C (stereo not given) here
Response given: 0

Challenge: # fetch the recorded call for O=c1ccc(=O)[nH][nH]1 here
Response given: 0

Challenge: # fetch the recorded call for CCOP(=S)(OCC)OC(Cl)C(Cl)(Cl)Cl (stereo not given) here
Response given: 0

Challenge: # fetch the recorded call for O=C(O)c1cc(Oc2ccc(C(F)(F)F)cc2Cl)ccc1[N+](=O)[O-] here
Response given: 0

Challenge: # fetch the recorded call for C=C(C)[C@H]1Cc2c(ccc3c2O[C@@H]2COc4cc(OC)c(OC)cc4[C@@H]2C3=O)O1 here
Response given: 0

Challenge: # fetch the recorded call for CNc1cnn(-c2cccc(C(F)(F)F)c2)c(=O)c1Cl here
Response given: 0

Challenge: # fetch the recorded call for CCOP(=O)(NC(C)C)Oc1ccc(SC)c(C)c1 (stereo not given) here
Response given: 0

Challenge: # fetch the recorded call for CCC(=O)Nc1ccc(Cl)c(Cl)c1 here
Response given: 0

Challenge: # fetch the recorded call for CSC1=N[C@@](C)(c2ccccc2)C(=O)N1Nc1ccccc1 here
Response given: 0

Challenge: # fetch the recorded call for CCC(CC)Nc1c([N+](=O)[O-])cc(C)c(C)c1[N+](=O)[O-] here
Response given: 0

Challenge: # fetch the recorded call for CCOP(=S)(OCC)Oc1ccc2c(C)c(Cl)c(=O)oc2c1 here
Response given: 0

Challenge: # fetch the recorded call for Cc1nn(-c2cc(NS(C)(=O)=O)c(Cl)cc2Cl)c(=O)n1C(F)F here
Response given: 0

Challenge: # fetch the recorded call for CC(C)N(C(=O)SCC(Cl)=C(Cl)Cl)C(C)C here
Response given: 0

Challenge: # fetch the recorded call for CON=C(C(=O)OC)c1ccccc1CON=C(C)c1cccc(C(F)(F)F)c1 here
Response given: 0

Challenge: # fetch the recorded call for C#CCC1=C(C)C(OC(=O)C2C(C=C(C)C)C2(C)C)CC1=O (stereo not given) here
Response given: 0

Challenge: # fetch the recorded call for CNC(=O)Oc1cccc2c1OC(C)(C)O2 here
Response given: 0

Challenge: # fetch the recorded call for CCOP(=S)(OCC)Oc1ccc([N+](=O)[O-])cc1 here
Response given: 0

Challenge: # fetch the recorded call for CC(C)[C@H](C(=O)O[C@H](C#N)c1cccc(Oc2ccccc2)c1)c1ccc(Cl)cc1 here
Response given: 0

Challenge: # fetch the recorded call for C#CC(C)(C)NC(=O)c1cc(Cl)cc(Cl)c1 here
Response given: 0

Challenge: # fetch the recorded call for CSc1nnc(C(C)(C)C)c(=O)n1N here
Response given: 0

Challenge: # fetch the recorded call for CNC(=O)ON=C(SC)C(=O)N(C)C here
Response given: 0

Challenge: # fetch the recorded call for CC1=NNC(=O)N(/N=C/c2cccnc2)C1 here
Response given: 0

Challenge: # fetch the recorded call for Cc1cc(C2CC2)nc(Nc2ccccc2)n1 here
Response given: 0

Challenge: # fetch the recorded call for CCCCOC(=O)c1ccccc1C(=O)O here
Response given: 0

Challenge: # fetch the recorded call for N#CSCSC#N here
Response given: 1

Challenge: # fetch the recorded call for CCCCN(CC)c1c([N+](=O)[O-])cc(C(F)(F)F)cc1[N+](=O)[O-] here
Response given: 0

Challenge: # fetch the recorded call for CCCSP(=O)(OCC)Oc1ccc(Br)cc1Cl (stereo not given) here
Response given: 0
